Species: Bos taurus
Assay: Inhibition of [3H]colchicine binding to bovine brain tubulin at 5 uM
Attribute Measured: inhibition (%)

CSc1ccc(N(C)c2nc(N)nc3[nH]c4ccccc4c23)cc1 = 67
COc1ccc(N(C)c2nc(C)nc3[nH]c4ccccc4c23)cc1 = 67
COc1ccc(N(C)c2ncnc3[nH]c4ccccc4c23)cc1 = 62
COc1ccc2c(c1)CCCN2c1nc(N)nc2[nH]c3ccccc3c12 = 71

###

Test: Ratio of EC50 for induction of microtubule depolymerization in rat A10 cells to IC50 for antiproliferative activity against human MDA-MB-435 cells
Attribute Measured: Ratio
Just the number.

These recorded examples may help you get a feel for the data.
CSc1ccc(N(C)c2nc(N)nc3[nH]c4ccccc4c23)cc1 = 12
COc1ccc2c(c1)CCCN2c1nc(N)nc2[nH]c3cccc(Cl)c3c12 = 15
COc1ccc(N(C)c2nc(N)nc3[nH]c4cccc(C)c4c23)cc1 = 6.5
COc1ccc2c(c1)CCCN2c1nc(N)nc2[nH]c3ccccc3c12 = 2.8
COc1ccc(N(C)c2ncnc3[nH]c4ccccc4c23)cc1 = 9.2

Entry COc1ccc(N(C)c2nc(C)nc3[nH]c4ccccc4c23)cc1 ; Ratio = 3.8
